Published IC50 for Insulin receptor (Homo sapiens, UniProt P06213), assembled from different documents, is shown next.

Worked cases, answers included:
compoundStructureString: CN1CCC(N2Cc3cc4nc(-c5c(NC[C@@H](O)COc6c(F)cccc6Cl)cc[nH]c5=O)[nH]c4cc3C2=O)CC1
IC50: < 0.5 µM
//
compoundStructureString: COc1cc(C2CCN([C@H]3C4CC5CC3C[C@](O)(C5)C4)CC2)ccc1Nc1ncc(C(F)(F)F)c(Nc2c(C)cccc2C(N)=O)n1
IC50: 1.64 µM
//
compoundStructureString: CCN1CCC(Nc2ccc3c(c2)/C(=C(\c2ccc(Cl)cc2)c2nc(C)c[nH]2)C(=O)N3)CC1
IC50: 0.5 to 5 µM

Entry COc1ccc(OC[C@H](O)CNc2cc[nH]c(=O)c2-c2nc3cc4c(cc3[nH]2)C(=O)N(C2CCN(C)CC2)C4=O)c(OC)c1OC ; IC50 = < 0.5 µM

----------
Published IC50 for Insulin receptor (Homo sapiens), assembled from different documents, is shown next.

compound: CNC(=O)c1cccc(C)c1Nc1nc(Nc2ccc(NC(=O)C34CC5CC(C3)C(N3CCOCC3)C(C5)C4)cc2OC)ncc1C(F)(F)F (stereo not shown)
measuredTarget: Insulin receptor (Homo sapiens)
valueObserved: > 10000 nM

compound: CCN1CCC(Nc2ccc3c(c2)/C(=C(\c2cccc(N)c2)c2nc4ccccc4[nH]2)C(=O)N3)CC1
measuredTarget: Insulin receptor (Homo sapiens)
valueObserved: 500 to 5000 nM

compound: O=C1Nc2ccc(NC3CCNCC3)cc2/C1=C(\c1ccccc1)c1nc2ccccc2[nH]1
measuredTarget: Insulin receptor (Homo sapiens)
valueObserved: 50 to 500 nM

Entry Cc1ccc(OC[C@H](O)CNc2cc[nH]c(=O)c2-c2nc3cc4c(cc3[nH]2)C(=O)N(CC(C)(C)CN(C)C)C4=O)c(C)c1 ; IC50 = < 500 nM

Entry COCCN1CCC(Nc2ccc3c(c2)/C(=C(\c2ccc(C)c(F)c2)c2ncc[nH]2)C(=O)N3)CC1 ; IC50 = 500 to 5000 nM

Entry Cc1ccc(OC[C@H](O)CNc2cc[nH]c(=O)c2-c2nc3cc4c(cc3[nH]2)C(=O)N(C2CCN(C)CC2)C4=O)cc1Cl ; IC50 = 500 to 5000 nM

Entry COCCN1CCC(Nc2ccc3c(c2)/C(=C(\c2ccc(F)c(F)c2)c2ncc[nH]2)C(=O)N3)CC1 ; IC50 = > 5000 nM

----------
Published pIC50 for UniProt:P06213, assembled from different documents, is shown next.
pIC50: −log10 of the molar value.

compoundStructureString: CCN1CCC(Nc2ccc3c(c2)/C(=C(\c2ccccc2)c2nc4cc(Cl)ccc4[nH]2)C(=O)N3)CC1
measuredTarget: UniProt:P06213
propertyMeasured: pIC50
valueObserved: 5.30 to 6.30
//
compoundStructureString: C=CC(=O)Nc1cc(Nc2nccc(-c3c4n(c5ccc(F)cc35)CCOC4)n2)c(OC)cc1N(C)CCN(C)C
measuredTarget: UniProt:P06213
propertyMeasured: pIC50
valueObserved: 6.36

Entry CCN1CCC(Nc2ccc3c(c2)/C(=C(\c2ccc(F)cc2)c2nc4ccccc4[nH]2)C(=O)N3)CC1 ; pIC50 = 5.30 to 6.30

Entry Cc1ccc(OC[C@H](O)CNc2cc[nH]c(=O)c2-c2nc3cc4c(cc3[nH]2)C(=O)N(C2CCN(CCO)CC2)C4=O)c(C)c1 ; pIC50 = 5.30 to 6.30

----------
Published IC50 for UniProt P06213, assembled from different documents, is shown next.

Worked cases, answers included:
molecule: C=CC(=O)Nc1cc(Nc2nccc(-c3cn(C)c4ccccc34)n2)c(OC)cc1N(C)C12CC(N(C)C)(C1)C2
IC50: ≥ 0.1 µM
--
molecule: C=CC(=O)N[C@@H]1CN(c2nc(Nc3cn(C)nc3OC)c3ncc(C)n3n2)C[C@H]1F
IC50: ≥ 0.1 µM
--
molecule: CCN1CCC(Oc2ccc3c(c2)/C(=C(\c2ccccc2)c2nc4cc(OC)ccc4[nH]2)C(=O)N3)CC1
IC50: 0.5 to 5 µM
--
molecule: CCN1CCC(Nc2ccc3c(c2)/C(=C(\c2ccc([N+](=O)[O-])cc2)c2nc4ccccc4[nH]2)C(=O)N3)CC1
IC50: > 5 µM
--
molecule: CCN1CCC(Nc2ccc3c(c2)/C(=C(\c2ccc(F)c(Cl)c2)c2nc(C)c[nH]2)C(=O)N3)CC1
IC50: 0.5 to 5 µM

Let's switch to this molecule now.
Bench note, UniProt P06213: CCN1CCC(Nc2ccc3c(c2)/C(=C(\c2cccc(OC)c2)c2nc4ccccc4[nH]2)C(=O)N3)CC1 , IC50 reads 0.5 to 5 µM

----------
Published IC50 for Insulin receptor (Homo sapiens, UniProt P06213), assembled from different documents, is shown next.

Worked cases, answers included:
molecule: CN1CCC(N2C(=O)c3cc4nc(-c5c(NC[C@@H](O)COc6cccnc6)ccnc5O)[nH]c4cc3C2=O)CC1
IC50: 5 to 15 µM
--
molecule: CN1CCC(N2C(=O)c3cc4nc(-c5c(N[C@@H](CO)Cc6ccccc6)cc[nH]c5=O)[nH]c4cc3C2=O)CC1
IC50: 0.5 to 5 µM
--
molecule: Cc1ccc(OC[C@H](O)CNc2cc[nH]c(=O)c2-c2nc3cc4c(cc3[nH]2)C(=O)N(CCCN2CCCC2)C4=O)c2c1CCC2
IC50: < 0.5 µM
--
molecule: C=CC(=O)Nc1cc(Nc2ncc(C#N)c(-c3cn(C45CC(C4)C5)c4ccccc34)n2)c(OC)cc1N(C)CCN(C)C
IC50: ≥ 0.1 µM

Bench note, Insulin receptor (Homo sapiens, UniProt P06213): CNC(=O)c1cccc(C)c1Nc1nc(Nc2ccc(NC3CCN(C4C5CC6CC(C5)CC4C6)CC3)cc2OC)ncc1C(F)(F)F (stereo not shown) , IC50 reads > 10 µM

Bench note, Insulin receptor (Homo sapiens, UniProt P06213): CNC(=O)c1cccc(C)c1Nc1nc(Nc2ccc(N[C@H]3C4CC5CC3C[C@](O)(C5)C4)cc2OC)ncc1C(F)(F)F , IC50 reads > 10 µM

Bench note, Insulin receptor (Homo sapiens, UniProt P06213): CCN1CCC(Nc2ccc3c(c2)/C(=C(\c2ccc(OC)cc2)c2nc4cc(OC)ccc4[nH]2)C(=O)N3)CC1 , IC50 reads 0.5 to 5 µM

----------
pIC50: −log10 of the molar value.
Published pIC50 for Insulin receptor (Homo sapiens, UniProt P06213), assembled from different documents, is shown next.

Worked cases, answers included:
molecule: C[C@H](O)CN1C(=O)c2cc3nc(-c4c(NC[C@@H](O)c5cccc(Cl)c5)cc[nH]c4=O)[nH]c3cc2C1=O
pIC50: 5.30 to 6.30
//
molecule: CN1CCC(N2C(=O)c3cc4nc(-c5c(NC[C@@H](O)COc6cccc(OC(F)(F)C(F)F)c6)cc[nH]c5=O)[nH]c4cc3C2=O)CC1
pIC50: 5.30 to 6.30
//
molecule: Cc1ccc(OCC(O)CNc2cc[nH]c(=O)c2-c2nc3cc4c(cc3[nH]2)C(=O)N(CC2CCN(CCO)CC2)C4=O)c(C)c1 (centres unmarked)
pIC50: > 6.30
//
molecule: C=CC(=O)N[C@@H]1CN(c2nc(Nc3cn([C@H]4CCN(C)C4)nc3OC)c3ncc(C)n3n2)C[C@H]1F
pIC50: ≤ 7.00
//
molecule: C=CC(=O)Nc1cc(Nc2nccc(-c3cn(C)c4ccccc34)n2)c(OC)cc1N(C)C12CC(CN(C)C)(C1)C2
pIC50: ≤ 7.00
//
molecule: CCN1CCC(Nc2ccc3c(c2)/C(=C(\c2ccc(C)cc2)c2nc4cc(OC)ccc4[nH]2)C(=O)N3)CC1
pIC50: 5.30 to 6.30

Bench note, Insulin receptor (Homo sapiens, UniProt P06213): C=CC(=O)N[C@@H]1CN(c2nc(Nc3cn(CCN(C)C)nc3OC)c3ncc(C)n3n2)C[C@H]1F , pIC50 reads ≤ 7.00

Bench note, Insulin receptor (Homo sapiens, UniProt P06213): CCN1CCC(Nc2ccc3c(c2)/C(=C(\c2ccc(C)c(F)c2)c2nc(C)c[nH]2)C(=O)N3)CC1 , pIC50 reads 5.30 to 6.30

Bench note, Insulin receptor (Homo sapiens, UniProt P06213): CCN1CCC(Oc2ccc3c(c2)/C(=C(\c2cccc(Cl)c2)c2nc4ccccc4[nH]2)C(=O)N3)CC1 , pIC50 reads 5.30 to 6.30

----------
pIC50: −log10 of the molar value.
Published pIC50 for Insulin receptor (Homo sapiens), assembled from different documents, is shown next.

compoundStructureString: C=CC(=O)Nc1cc(Nc2ncc(F)c(-c3c4n(c5ccccc35)CCOC4)n2)c(OC)cc1N(C)CCN(C)C
measuredTarget: Insulin receptor (Homo sapiens)
pIC50: 6.41
//
compoundStructureString: CCN1CCC(Nc2ccc3c(c2)/C(=C(\c2cccc([N+](=O)[O-])c2)c2nc4ccccc4[nH]2)C(=O)N3)CC1
measuredTarget: Insulin receptor (Homo sapiens)
pIC50: 5.30 to 6.30
//
compoundStructureString: CCN1CCC(Nc2ccc3c(c2)/C(=C(/c2nc(C)c[nH]2)c2ccc(C(F)(F)F)cc2F)C(=O)N3)CC1
measuredTarget: Insulin receptor (Homo sapiens)
pIC50: 5.30 to 6.30
//
compoundStructureString: Cc1cc(C)c(OC[C@H](O)CNc2cc[nH]c(=O)c2-c2nc3cc4c(cc3[nH]2)C(=O)N(C2CCN(C)CC2)C4=O)cc1Cl
measuredTarget: Insulin receptor (Homo sapiens)
pIC50: 5.30 to 6.30
//
compoundStructureString: CN1CCC(N2C(=O)c3cc4nc(-c5c(N[C@H](CO)Cc6c[nH]cn6)cc[nH]c5=O)[nH]c4cc3C2=O)CC1
measuredTarget: Insulin receptor (Homo sapiens)
pIC50: < 4.82
//
compoundStructureString: CCN1CCC(Nc2ccc3c(c2)/C(=C(\c2ccc(C(F)(F)F)cc2)c2ncc[nH]2)C(=O)N3)CC1
measuredTarget: Insulin receptor (Homo sapiens)
pIC50: < 5.30

Entry CNC(=O)c1cccc(C)c1Nc1nc(Nc2ccc(C3CCN([C@H]4C5CC6CC4C[C@@](O)(C6)C5)CC3)cc2OC)ncc1C(F)(F)F ; pIC50 = 5.69
